molecular target: PTGER2 (EP2) (Homo sapiens (Human), UniProt P43116); assay: hEP2 b-arrestin assay (PathHunter HEK 293 PTGER2 b-arrestin cells); format: cell-based; settings: hEP2 b-arrestin assay (values without asterisk)
Sequence (P43116 whole entry): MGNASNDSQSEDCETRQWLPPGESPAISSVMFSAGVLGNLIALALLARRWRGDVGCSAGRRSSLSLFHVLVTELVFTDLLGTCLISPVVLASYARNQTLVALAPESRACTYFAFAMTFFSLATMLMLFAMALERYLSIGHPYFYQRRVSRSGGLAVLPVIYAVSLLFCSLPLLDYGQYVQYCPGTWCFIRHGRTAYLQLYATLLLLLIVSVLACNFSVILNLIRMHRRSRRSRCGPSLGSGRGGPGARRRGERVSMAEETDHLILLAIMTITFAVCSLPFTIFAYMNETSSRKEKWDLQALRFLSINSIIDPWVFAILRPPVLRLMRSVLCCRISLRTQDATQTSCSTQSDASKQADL
pIC50: −log10 of the molar value.
Kind request: treat 8 as inclusive, so pIC50 at 8 or higher is 1 (yes), anything lower is 0 (no).

compound: CCOc1cc(-c2cc(NCCn3c(C#N)cc4c(OC)ccc(F)c43)ncn2)ccc1C=O [Example 992]
classification: 0 (no)
--
compound: COc1ccc(F)c2c1cc(C#N)n2CCNc1cc(-c2ccc3c(=O)n(C)[nH]c3c2)ncn1 [Example 920]
classification: 0 (no)
--
compound: CCOc1cc(-c2cc(NCCn3c(C#N)cc4cccc(F)c43)ncn2)ccc1NCC(=O)O [Example 896]
classification: 1 (yes)
--
compound: COc1ccc(F)c2c1cc(C#N)n2CCNc1cc(-c2ccc(-c3cnn[nH]3)cc2)ncn1 [Example 923]
classification: 0 (no)
--
compound: COc1ccc(F)c2c1cc(C)n2CCNc1cc(-c2cc(-c3ccccn3)c(C(=O)O)s2)ncn1 [Example 1066]
classification: 1 (yes)
--
compound: CCOC(=O)c1csc(-c2cc(NCCn3c(C#N)cc4c(OC)ccc(F)c43)ncn2)c1 [Example 1009]
classification: 0 (no)

###

biological target: PTGER2 (EP2) (Homo sapiens (Human), UniProt P43116); test: hEP2 b-arrestin assay (PathHunter HEK 293 PTGER2 b-arrestin cells); type: cell-based; conditions: antagonistic activity on hEP2; mean where measured multiple times
pIC50: −log10 of the molar value.
Readings of pIC50 for the listed compounds
recorded endpoint: pIC50

compound: Cc1ccc(F)c2c1cc(C)n2CCNc1cc(-c2cc(Cl)c(C(=O)O)s2)ncn1 [compound 18]
recorded number: 7.57
--
compound: Cc1cc2ccccc2n1CCNc1cc(-c2cc(Cl)c(C(=O)O)s2)ncn1 [compound 5]
recorded number: 8.30
--
compound: COc1ccc(F)c2c1cc(C)n2CCNc1cc(-c2ccc3[nH]c(=O)[nH]c3c2)ncn1 [compound 115]
recorded number: 7.25
--
compound: CCSc1cc(-c2cc(NCCn3c(C)cc4c(C)c(F)cc(Cl)c43)ncn2)ccc1C(=O)O [compound 341]
recorded number: 7.38
--
compound: CCN1Cc2cc(-c3cc(NCCn4c(C)cc5c(OC)cccc54)ncn3)ccc2C1=O [compound 197]
recorded number: 7.49
--
compound: CCOc1cc(-c2cc(NCCn3c(C)cc4ccccc43)ncn2)sc1C(=O)O [compound 50]
recorded number: 9.00
--
compound: Cc1cc2cccc(F)c2n1CCNc1cc(-c2ccc(C(=O)O)c(CC(C)C)c2)ncn1 [compound 148]
recorded number: 8.15
--
compound: CCCN1Cc2cc(-c3cc(NCCn4c(C)cc5c(OC)cccc54)ncn3)ccc2C1=O [compound 315]
recorded number: 7.34

###

target: EP4 (Homo sapiens (Human)); test: hEP4 cAMP assay (BT549 breast cancer cells, HTRF cAMP); type: cell-based; conditions: antagonistic activity; mean values where measured multiple times
Sequence (P35408 whole entry): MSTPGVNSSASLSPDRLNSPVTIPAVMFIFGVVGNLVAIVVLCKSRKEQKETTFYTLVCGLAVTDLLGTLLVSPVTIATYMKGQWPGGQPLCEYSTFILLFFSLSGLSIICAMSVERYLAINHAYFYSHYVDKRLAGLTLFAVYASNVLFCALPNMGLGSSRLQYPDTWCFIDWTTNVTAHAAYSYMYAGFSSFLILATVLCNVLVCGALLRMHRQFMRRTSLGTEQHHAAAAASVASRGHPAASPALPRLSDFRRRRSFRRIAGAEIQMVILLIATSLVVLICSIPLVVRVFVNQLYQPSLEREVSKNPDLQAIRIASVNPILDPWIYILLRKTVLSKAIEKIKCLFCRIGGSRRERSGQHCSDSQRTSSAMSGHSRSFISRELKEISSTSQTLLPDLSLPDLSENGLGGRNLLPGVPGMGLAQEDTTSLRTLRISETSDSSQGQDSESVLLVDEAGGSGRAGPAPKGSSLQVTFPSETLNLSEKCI
pIC50: −log10 of the molar value.

smiles code: CCOc1cc(-c2cc(NCCn3c(C)cc4c(OC)ccc(Cl)c43)ncn2)cc(CC)c1C(=O)O
pIC50: 6.02
--
smiles code: COc1cc(F)cc2c1cc(C)n2CCNc1cc(-c2ccc3c(ccn3C)c2)ncn1
pIC50: 7.10
--
smiles code: CCOc1cc(-c2cc(NCCn3c(C)cc4c(OC)cc(F)c(F)c43)ncn2)cc(F)c1-c1nnn[nH]1
pIC50: 7.05
--
smiles code: COc1cc(F)c(F)c2c1cc(C)n2CCNc1cc(-c2ccc(-c3cnc(N)o3)cc2)ncn1
pIC50: 7.43
--
smiles code: Cc1ccc(F)c2c1cc(C)n2CCNc1cc(-c2ccc3nn[nH]c3c2)ncn1
pIC50: 6.35
--
smiles code: Cc1cc2c(Cl)cc(Cl)cc2n1CCNc1cc(-c2ccc(-c3nc(C(=O)O)cs3)cc2)ncn1
pIC50: 6.47
--
smiles code: COc1ccc(Cl)c2c1cc(C)n2CCNc1cc(-c2ccc(C(=O)O)c(OCC(C)C)c2)ncn1
pIC50: 6.71
--
smiles code: CCOc1cc(-c2cc(NCCn3c(C)cc4c(C)cc(F)cc43)nc(C)n2)ccc1C(=O)O
pIC50: 6.04
--
smiles code: CCCOc1cc(-c2cc(NCCn3c(C)cc4c(OC)cc(F)cc43)ncn2)sc1C(=O)O
pIC50: 8.22
--
smiles code: Cc1c(F)cc(F)c2c1cc(C)n2CCNc1cc(-c2ccc(C(=O)O)c(CC(C)C)c2)ncn1
pIC50: 7.16
--
smiles code: Cc1cc(F)cc2c1cc(C)n2CCNc1cc(-c2ccc(-c3ccccn3)cc2)ncn1
pIC50: 6.31
--
smiles code: CCOc1cc(-c2cc(NCCn3c(C)cc4c(OC)c(F)cc(Cl)c43)ncn2)ccc1C(=O)O
pIC50: 6.49
--
smiles code: COc1ccc(C)c2c1cc(C)n2CCNc1cc(-c2ccc(C(=O)O)c(CC(C)C)c2)ncn1
pIC50: 6.79
--
smiles code: COc1ccc(F)c2c1cc(C)n2CCNc1cc(-c2ccc(C3(C(=O)O)CCCC3)cc2)ncn1
pIC50: 6.19
--
smiles code: CCOc1cc(-c2cc(NCCn3c(C)cc4c(F)c(F)cc(F)c43)ncn2)ccc1C(=O)O
pIC50: 6.62
--
smiles code: CCCCOc1cc(-c2cc(NCCn3c(C)cc4c(OC)ccc(Cl)c43)ncn2)ccc1C(=O)O
pIC50: 6.66
--
smiles code: CCOc1cc(-c2cc(NCCn3c(C)cc4c(OC)ccc(F)c43)ncn2)ccc1CNC1CC1
pIC50: 6.19
--
smiles code: CCOC(=O)c1sc(-c2cc(NCCn3c(C)cc4c(OC)ccc(F)c43)ncn2)cc1OCC
pIC50: 7.00
--
smiles code: CCCCOc1cc(-c2cc(NCCn3c(C)cc4c(OC)cc(F)cc43)ncn2)ccc1C(=O)O
pIC50: 7.25
--
smiles code: Cc1cc(F)cc2c1cc(C)n2CCNc1cc(-c2ccc3nccnc3c2)ncn1
pIC50: 6.09
--
smiles code: Cc1cc(F)c(F)c2c1cc(C)n2CCNc1cc(-c2ccc3c(ccn3C)c2)ncn1
pIC50: 6.65
--
smiles code: CCOc1cc(-c2cc(NCCn3c(C)cc4c(C)cc(F)c(F)c43)ncn2)cc(F)c1-c1nnn[nH]1
pIC50: 6.72
--
smiles code: Cc1ccc(F)c2c1cc(C)n2CCNc1cc(-c2ccc3c(ccn3C)c2)ncn1
pIC50: 6.75
--
smiles code: COc1ccc(F)c2c1cc(C)n2CCNc1cc(-c2ccc(C(=O)O)c(OC3CCCC3)c2)ncn1
pIC50: 7.14
--
smiles code: CCOc1cc(-c2cc(NCCn3c(C)cc4c(C)ccc(F)c43)ncn2)cc(F)c1C(=O)O
pIC50: 6.80
--
smiles code: CCNc1cc(-c2cc(NCCn3c(C)cc4c(OC)ccc(F)c43)ncn2)cc(F)c1C(=O)O
pIC50: 7.01
--
smiles code: COc1cc(F)cc2c1cc(C)n2CCNc1cc(-c2ccc(-c3c[nH]c(C)n3)cc2)ncn1
pIC50: 7.48
--
smiles code: COc1cc(F)c(F)c2c1cc(C)n2CCNc1cc(-c2ccc3[nH]ccc3c2)ncn1
pIC50: 7.62
--
smiles code: CCOc1cc(-c2cc(NCCn3c(C)cc4c(OC)cccc43)ncn2)cc(Cl)c1C(=O)O
pIC50: 6.71
--
smiles code: Cc1cc2c(Cl)cc(Cl)cc2n1CCNc1cc(-c2ccc(-c3noc(=O)[nH]3)cc2)ncn1
pIC50: 6.61
--
smiles code: COc1cc(F)c(F)c2c1cc(C)n2CCNc1cc(-c2ccc(C(=O)CC#N)cc2)ncn1
pIC50: 6.37

###

biological target: PTGER2 (EP2) (Homo sapiens (Human)); assay: hEP2 b-arrestin assay (PathHunter HEK 293 PTGER2 b-arrestin cells); format: cell-based; details: antagonistic activity on hEP2; mean where measured multiple times

smiles code: COc1cc(-c2cc(NCCn3c(C)cc4c(C)ccc(F)c43)ncn2)ccc1C(=O)O
measured on: PTGER2 (EP2) (Homo sapiens (Human))
measurement units: nM
IC50: 48

smiles code: COc1cccc2c1cc(C)n2CCNc1cc(-c2cc(C)c(C(=O)O)c(Cl)c2)ncn1
measured on: PTGER2 (EP2) (Homo sapiens (Human))
measurement units: nM
IC50: 23

smiles code: CSc1cc(-c2cc(NCCn3c(C)cc4c(C)c(F)cc(Cl)c43)ncn2)ccc1C(=O)O
measured on: PTGER2 (EP2) (Homo sapiens (Human))
measurement units: nM
IC50: 46

smiles code: CCc1cc(-c2cc(NCCn3c(C)cc4c(OC)ccc(Cl)c43)ncn2)sc1C(=O)O
measured on: PTGER2 (EP2) (Homo sapiens (Human))
measurement units: nM
IC50: 25

smiles code: COc1cc(F)cc2c1cc(C)n2CCNc1cc(-c2ccc(-c3nc(C)no3)cc2)ncn1
measured on: PTGER2 (EP2) (Homo sapiens (Human))
measurement units: nM
IC50: 103

smiles code: CCc1cc(-c2cc(NCCn3c(C)cc4c(OC)cccc43)ncn2)ccc1C(=O)O
measured on: PTGER2 (EP2) (Homo sapiens (Human))
measurement units: nM
IC50: 8

smiles code: CCNc1cc(-c2cc(NCCn3c(C)cc4c(Cl)cccc43)ncn2)ccc1C(=O)O
measured on: PTGER2 (EP2) (Homo sapiens (Human))
measurement units: nM
IC50: 1

smiles code: Cc1cc2c(Cl)cc(Cl)cc2n1CCNc1cc(-c2cc(Cl)c(C(=O)O)s2)ncn1
measured on: PTGER2 (EP2) (Homo sapiens (Human))
measurement units: nM
IC50: 5

smiles code: CCOc1cc(-c2cc(NCCn3c(C)cc4c(C)ccc(Cl)c43)ncn2)ccc1C(=O)O
measured on: PTGER2 (EP2) (Homo sapiens (Human))
measurement units: nM
IC50: 27

smiles code: COc1cccc2c1cc(C)n2CCNc1cc(-c2ccc(CO)c(Cl)c2)ncn1
measured on: PTGER2 (EP2) (Homo sapiens (Human))
measurement units: nM
IC50: 9

smiles code: COc1ccc(F)c2c1cc(C)n2CCNc1cc(-c2ccc(-c3c[nH]cn3)cc2)ncn1
measured on: PTGER2 (EP2) (Homo sapiens (Human))
measurement units: nM
IC50: 13

smiles code: Cc1cc2c(F)ccc(F)c2n1CCNc1cc(-c2ccc(C(=O)O)c(CC(C)C)c2)ncn1
measured on: PTGER2 (EP2) (Homo sapiens (Human))
measurement units: nM
IC50: 5

smiles code: Cc1ccc(F)c2c1cc(C)n2CCNc1cc(-c2ccc3c(c2)CC(=O)N3)ncn1
measured on: PTGER2 (EP2) (Homo sapiens (Human))
measurement units: nM
IC50: 47

smiles code: CCNC(=O)Nc1ccc(-c2cc(NCCn3c(C)cc4c(OC)cccc43)ncn2)cc1OC
measured on: PTGER2 (EP2) (Homo sapiens (Human))
measurement units: nM
IC50: 20

smiles code: Cc1ccc(F)c2c1cc(C)n2CCNc1cc(-c2ccc(C(N)=O)cc2)ncn1
measured on: PTGER2 (EP2) (Homo sapiens (Human))
measurement units: nM
IC50: 27

smiles code: Cc1cc(F)cc2c1cc(C)n2CCNc1cc(-c2cc(Cl)c(C(=O)O)s2)ncn1
measured on: PTGER2 (EP2) (Homo sapiens (Human))
measurement units: nM
IC50: 17
